- MEASUREMENT_TARGET: T1, human CD8αα homodimer, recombinant protein (Acro Biosystems) (human, UniProt P01732 22-182)
- T1 construct: also called CD8αα antigen; biotinylated CD8α recombinant protein (CDA-H82E3)
- T1 sequence (P01732 22-182 limits assumed): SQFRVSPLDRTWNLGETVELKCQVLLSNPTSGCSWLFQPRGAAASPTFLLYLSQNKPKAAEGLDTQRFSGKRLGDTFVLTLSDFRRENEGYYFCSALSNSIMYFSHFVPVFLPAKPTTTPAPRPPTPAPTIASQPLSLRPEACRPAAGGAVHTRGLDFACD
- ASSAY_PROCEDURE: BLI kinetics, F(ab) on biotinylated CD8α (SA-XT sensor), 1:1 fit, 30 °C
QUANTITY_NAME: Kd
# answer = value followed by unit

>  <BINDER>
CBD1035 (Fab, V domains shown, also called h1017-H3/L2 F(ab)) VH: QVQLVQSGAEVKKPGASVKISCKASRYTFTDYNLHWVRQAPGQGLEWIGFIYPYNGGTGYAQKFQGRATLTVDTSTSTAYMELSSLRSEDTAVYYCARDHRYNEGVSFDYWGQGTTLTVSS VL: DIQLTQSPSSLSASVGDRATITCRASESVDGFGNSFMNWYQQKPGKAPKLLIYLASNLESGVPSRFSGSGSGTDFTLTISSVQPEDFATYYCQQNNEDPYTFGQGTKLEIK

>  <QUANTITY_NAME>
Kd

>  <VALUE_MEASURED>
3.07 nM

$$$$
>  <BINDER>
CBD1034 (Fab, V domains shown, also called h1017-H2/L3 F(ab)) VH: QVQLVQSGAEVKKPGASVKVSCKASRYTFTDYNLHWVRQAPGQGLEWMGFIYPYNGGTGYAQKFQGRVTMTVDTSTSTAYMELSSLRSEDTAVYYCARDHRYNEGVSFDYWGQGTTVTVSS VL: DIQLTQSPSSLSASVGDRATITCRASESVDGFGNSFMNWYQQKPGKAPKLLIYLASNLESGVPSRFSGSGSRTDFTLTISSVQPEDFATYYCQQNNEDPYTFGQGTKLEIK

>  <QUANTITY_NAME>
Kd

>  <VALUE_MEASURED>
9.9 nM

$$$$

API: the following record is the query input.
// Kd lookup, binder = CBD1017ch Fab (chimeric CT8 Fab) (Fab, V domains shown, Chimeric: variable regions of mouse CT8 (clone RPA-T8) with human constant parts; also called parental CBD1017ch Fab) VH: EVQLQQSGPELVKPGASVKISCKASRYTFTDYNLHWVKLSHEKSLEWIGFIYPYNGGTGYNQKFKNKAKLTVDYSSSTAYMELRSLTSVDAAVYYCARDHRYNEGVSFDYWGQGTTLTVSS VL: NIVLTQSPASLAVSLGQRATISCRASESVDGFGNSFMNWYQQKPGQSPKLLIYLASNLESGVPARFSGSGSRTDFTLTIDPVEADDAATYYCQQNNEDPYTFGGGTKLEIK , result: 0.814 nM
